# PROTOCOL: soluble on expression in E. coli; label from the status in PepcDB or PDB records

ORDERED_RESIDUES	soluble on expression in E. coli
MAHHHHHHMKKACKLASECLKLCLENSKEGITTDIIDNMAYDFYIKNNAYPAGLNFHSFPKSICASPNEVVCHGIPNLRKLQRGDIITYDCTVFLDGVFGDCAGTVGIGEISERHKKLMDVSKECLYKAISICRDGQLFSEIGRIITEHANKNGFNVIKDFCGHFIGTHMHMYPLIEHHYPNSHNNHRMKKGQIFTIEPILSEGSINIYTWKDKWTVCTNDNSFCSQWEHTILVLDNYAEILT	not soluble
MGSDKIHHHHHHMAVLVTRPDERGQQLVDMLAKAGVVAIHLPLFRIESGAELNELPNKFAKLKNGDYVFAVSKSAVDFAFKTLTATGFVWRHDLHYFTVGQGTAQYFTATTEMPVHYPTAQENSEGLLQLNAMQDLSDKTVLILRGNGGRELFAEQAQQRGANVEIVECYRREPIVYNNAEQTSICKRAGIQTIVVTSAEILTQLVDFVPQNEHNWLKSCQLITVSERIAHLAEALGWQNVVISPRADNQTLLQTLLQCR	not soluble

----------
# PROTOCOL: soluble on expression in E. coli; label from the status in PepcDB or PDB records
OBSERVED_PROPERTY: soluble on expression in E. coli

These solved cases illustrate the format of a correct answer.
ORDERED_RESIDUES	soluble on expression in E. coli
MLEDLKRQVLEANLALPKHNLVTLTWGNVSAVDRERGVFVIKPSGVDYSIMTADDMVVVSIETGEVVEGAKKPSSDTPTHRLLYQAFPSIGGIVHTHSRHATIWAQAGQSIPATGTTHADYFYGTIPCTRKMTDAEINGEYEWETGNVIVETFEKQGIDAAQMPGVLVHSHGPFAWGKNAEDAVHNAIVLEEVAYMGIFCRQLAPQLPDMQQTLLNKHYLRKHGAKAYYGQ	soluble
MGSDKIHHHHHHMSKAYSSNLTQDQWELLEPLIPVGKTGGRPRVVEMWQVINAIFYVLTQGCTWRNLPGDLPNWQTVYTYFRNWRKDGTWVSIHDQLRDWERVNNERAVSPTEAIIDSQSVKTAAMVTQQVGYDAGKKVKGRKRFLTVDTLGLVLPVLVSAASVDERSGGKLLLQKVKQMGDKVSRLNLIWVDGGYDGNPFMQWVMDFYRWVVQVVLRPRERKGFVLLPKRWVVERTFGWLTGCRRLNKDYELLPETAENFIYLAMIRIMVRRLA	not soluble
MSLSDDPMASIKLLNLERENSAIAQYQSNIANLKTTLSSQETHLDSVNESLKSMRDIVLWGANGSLTDQDRSGMITELKSYRDSIESSFNAQDEEGHFLFSGTKTDTAALNKSSGAYVVEGNSDVRVVTVAKGVTMDSNMTAQEILDIGGGKNVLNQIDALIAEFEKPSPNFQAEVDASLNAIDDTMANVLGAMTEIGGRHNNLDLMDGAHSENKLFVDKVSGDLSALDYGEASVRLSNYMAALQATQASYVKINDLSLFDREGHHHHHH	soluble
GPGSMVAKQHFLAAVKMTPARGAAAALSPPQTAEVVGRTAAGGKGCSGSFVDRRLENVMARAREMGWTSPESLIESLKAAQWHSHGKTPAIAEAEAAALPSPHVPAFKPDALSSSSDRHAQPRLPQPRDETPHQARKGAAVSGANSSITECWSGHGPVSQQPHTPHQGADACRAFPSSRTESADSAMRVEATRVLCSGGAAHAGLPSESLLSPPAAESSRVAGTGHAYPPAPLQGHEGLVSSGLTNPLTRLTMPTSATAGAAAAQPLIELEQELVKLRHLVRTLESKQFVHAHQSSAQASELQAQCAELQHQQLAQAKELRLALARLISVGNELEGLRDVKTHLQMQLTASQQESARLRDALLMGETRARDVQ	not soluble
MFTRQAGHFVEGSKAGRSRGRLCLSQALRVAVRGAFVSLWFAAGAGDRERNKGDKGAQTGAGLSQEAEDVDVSRARRVTDAPQGTLCGTGNRNSGSQSARAVGVAHLGEAFRVGVEQAISSCPEEVHGRHGLSMEIMWAQMDVALRSPGRGLLAGAGALCMTLAESSCPDYERGRRACLTLHRHPTPHCSTWGLPLRVAGSWLTVVTVEALGRWRMGVRRTGQVGPTMHPPPVSGASPLLLHHLLLLLLIIILTC	not soluble
MAHHHHHHMGLEDIDECLPPSLGGKGQVLKGRPVNNGDGTSGSCAKVNFGELFGFPVASSGGAVMPSASAGVGSVQAGSKTECQEPEEQWIWVSAEGQKSEASPVDNMAGRSNDPLDAFFTSHTPSLQPSSSMKREEKPFTDLLDFSKPAERVRYSDEHSLLEAFENQSKGRRADVRDDPSLEDLSHGSSNNAVRARLLKIMNYYDILGVTRDATEEQIRQRYKQKALELHPDRVGRDQTPEEVELFKVMTKANEVLCDPEERAKYDEELRCSNVGADDEAQWLFHLHLR	soluble
KVILKEDAEMLDEVVVTGYGMSQKRSLMTNSISKLDDKVLQNAAMSNAAQSLQGTVSGLRVTNTSGKPGSSPNIVLRGGASINKNLEGPLVVVDGLVRSMDDINPSDIESIQVLKDAASTAIYGARANNGVILVTTKKGVEGR	not soluble
EVQLVESGGGLVQPGGSLRLSCAASGFTFSRYTMSWVRQAPGKGLEWVATISGGGHTYYLDSVKGRFTISRDNSKNTLYLQMNSLRAEDTAVYYCTRGFGDGGYFDVWGQGTLVTVSSAKTTPPSVYPLAPGSAAQTNSMVTLGCLVKGYFPEPVTVTWNSGSLSSGVHTFPAVLQSDLYTLSSSVTVPSSTWPSETVTCNVAHPASSTKVDKKIVPRDCHHHHHH	soluble
MGHHHHHHSHMASSTSLPAPGSRPKKPLGKMADWFRQTLLKKPKKRPNSPESTSSDASQPTSQDNPLPPSLSSVTSPSLPPTHASDSGSSRWSKDYDVCVCHSEEDLVAAQDLVSYLEGSTASLRCFLQLRDATPGGAIVSELCQALSSSHCRVLLITPGFLQDPWCKYQMLQALTEAPGAEGCTIPLLSGLSRAAYPPELRFMYYVDGRGPDGGFRQVKEAVMRCKLLQEGEGERDSATVSDLL	soluble
MVTLEELKAVFKPKLKPIIWREDSLDLLDQSALPFQTTYITVKTPEEVAKAIKLMQVRGAPAIGITAGYGMVLALISTKPNTLNEAIEELVKAKQIMDQARPTAVNLSWATSRMLNFAKKKIEEGEAKSVSELIQLMKEEANRIYEEELEAELKIGMYGLEKISDGDTILTQCNAGGLATGTGLGTALAPVKLAHYLGMKVSVIAPETRPWLQGSRLTVYELMAEGIQVTLITDTAVGLVIYKNMVNSVMVGADRILKDGHVFNKIGTFKEAVISHELGIPFYALAPSSSFDLKSKVDEIKIEERDPNEVRTIRGIPIVPENVKVYNPVFDVTPPKYITALITEKGVIYPPFEKNIPKIIGL	soluble

We now examine a further sequence.
// soluble on expression in E. coli lookup, sequence = HHDITKVDTSGASEITARQDKLTLQGVDASHKLAEHDLVRMNKYKELITRVGQKHGLDPAIIAGIISRESRAGSALDHGWGDHGKGFGLMQVDKRYHKIVGAWDSEKHISQGTEILIEFIRRIQAKFPVWPKEHQLKGGISAYNAGDKNVRTYERMDVGTTGGDYSNDVVARSQWFKSQGY , result: soluble
